Exercise: for every item that follows, state its recorded absorbance at 492 nm.
# System: P64K-VEGFKDR- (human) (UniProt P15692)
# Sequence (P15692 other isoform, or with tags, fused parts or gaps, stated change not applied): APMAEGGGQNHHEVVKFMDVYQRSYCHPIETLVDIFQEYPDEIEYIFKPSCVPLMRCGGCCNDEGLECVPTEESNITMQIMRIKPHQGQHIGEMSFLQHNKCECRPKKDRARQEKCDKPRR
# Assay method text: ELISA; antigen coated 1 µg/ml; scFv 10 µg/mL; 9E10-peroxidase
Provide a numeric answer; units are not to be included.

input: Supply absorbance at 492 nm value. Item: soluble scFv 2H1 antibody fragment (scFv, from another filing) scFv: QQVQLVQSGAEVKKPGESLKISCKGSGYSFTSYWIGWVRQMPGKGLEWMGIIYPGDSDTRYSPSFQGQVTISADKSISTAYLQWSSLKASDTAMYYCARLVVRDTEIWGQGTMVTVSSAPQAKSSGSGSESKVDQAVVTQEPSLTVSPGGTVTLTCASSIGAVTSGNYPNWFQQRPGQPPRALIYSTSNKHSWTPARFSGSLLGGKAALTLSGAQPEDEAEYYCLLSYSGARPVFGGGTKLTVLGAAAGSEQKLISEEDLNSHHHHHH
output: 0.764

input: Supply absorbance at 492 nm value. Item: scFv L3H5 antibody fragment (scFv, soluble, from E. coli) scFv: QQVQLVQSGAEVKKPGESLKISCKGSGYSFTSYWIGWVRQMPGKGLEWMGIIYPGDSDTRYSPSFQGQVTISADKSISTAYLQWSSLKASDTAMYYCARLVHRYRAIWGQGTMVTVSSAPQAKSSGSGSESKVDQAVVTQEPSLTVSPGGTVTLTCASSTGAVTSGNYPNWFQQRPGQPPRALIYSTSNKHSWTPARFSGSLLGGKAALTLSGAQPEDEAEYYCRLSYDLARPVFGGGTKLTVLG
output: 2.61

input: Supply absorbance at 492 nm value. Item: scFv L3H7 antibody fragment (scFv, soluble, from E. coli) scFv: QQVQLVQSGAEVKKPGESLKISCKGSGYSFTSYWIGWVRQMPGKGLEWMGIIYPGDSDTRYSPSFQGQVTISADKSISTAYLQWSSLKASDTAMYYCARPYATDTRIWGQGTMVTVSSAPQAKSSGSGSESKVDQAVVTQEPSLTVSPGGTVTLTCASSTGAVTSGNYPNWFQQRPGQPPRALIYSTSNKHSWTPARFSGSLLGGKAALTLSGAQPEDEAEYYCRLSYDLARPVFGGGTKLTVLG
output: 2.47

input: Supply absorbance at 492 nm value. Item: scFv L3H6 antibody fragment (scFv, soluble, from E. coli) scFv: QQVQLVQSGAEVKKPGESLKISCKGSGYSFTSYWIGWVRQMPGKGLEWMGIIYPGDSDTRYSPSFQGQVTISADKSISTAYLQWSSLKASDTAMYYCARQGTHNRKIWGQGTMVTVSSAPQAKSSGSGSESKVDQAVVTQEPSLTVSPGGTVTLTCASSTGAVTSGNYPNWFQQRPGQPPRALIYSTSNKHSWTPARFSGSLLGGKAALTLSGAQPEDEAEYYCRLSYDLARPVFGGGTKLTVLG
output: 2.77
